# assay-protocol: clinical study (i): single-dose oral pharmacokinetics, Formulation 1 capsules
# Assay type: in vivo, human
# cond: both sexes, human, plasma, po, 10 mg, single oral dose 10 mg, healthy subjects; read-out: AUC (tf) Mean
metric-name: AUC (ng·h/mL)
Enter your answer as a number in ng·h/mL; do not include the unit.

What does the record list as AUC for CC[C@@H](Nc1c(Nc2cccc(C(=O)N(C)C)c2O)c(=O)c1=O)c1ccc(C)o1 ?
162

* * *

# assay-protocol: clinical study (ii): single-dose 30 mg, fasted or fed subjects, Formulation 1 capsules
# Format: in vivo, human
# cond: both sexes, human, plasma, po, 30 mg, single oral dose 30 mg, fed, healthy subjects, n = 7; read-out: AUC(I) Mean
metric-name: AUC (µg·h/mL)
Enter your answer as a number in µg·h/mL; do not include the unit.

What does the record list as AUC for CC[C@@H](Nc1c(Nc2cccc(C(=O)N(C)C)c2O)c(=O)c1=O)c1ccc(C)o1 ?
0.572

* * *

# assay-protocol: clinical study (iii): multiple-dose oral pharmacokinetics, Formulation 1 capsules
# Type: in vivo, human
# cond: both sexes, human, plasma, oral, 10 mg, multiple-dose 10 mg, Day 14; read-out: Tmax Median
metric-name: Tmax (min)
Enter your answer as a number in min; do not include the unit.

What does the record list as Tmax for CC[C@@H](Nc1c(Nc2cccc(C(=O)N(C)C)c2O)c(=O)c1=O)c1ccc(C)o1 ?
30

* * *

# assay-protocol: clinical study (i): single-dose oral pharmacokinetics, Formulation 1 capsules
# Format: in vivo, human
# cond: both sexes, human, plasma, po, 100 mg, single oral dose 100 mg, healthy subjects; read-out: AUC(I) Mean
metric-name: AUC

What does the record list as AUC for CC[C@@H](Nc1c(Nc2cccc(C(=O)N(C)C)c2O)c(=O)c1=O)c1ccc(C)o1 ?
878 ng·h/mL

* * *

# assay-protocol: clinical study (i): single-dose oral pharmacokinetics, Formulation 1 capsules
# Assay type: in vivo, human
# cond: both sexes, human, plasma, po, single oral dose 150 mg (+Filgrastim 300 μg), healthy subjects; read-out: AUC (tf) Mean
metric-name: AUC (ng·h/mL)
Enter your answer as a number in ng·h/mL; do not include the unit.

What does the record list as AUC for CC[C@@H](Nc1c(Nc2cccc(C(=O)N(C)C)c2O)c(=O)c1=O)c1ccc(C)o1 ?
1320

* * *

# assay-protocol: clinical study (iii): multiple-dose oral pharmacokinetics, Formulation 1 capsules
# Type: in vivo, human
# cond: both sexes, human, plasma, oral, 30 mg, multiple-dose 30 mg, Day 1
metric-name: Cmax (ng/mL)
Enter your answer as a number in ng/mL; do not include the unit.

What does the record list as Cmax for CC[C@@H](Nc1c(Nc2cccc(C(=O)N(C)C)c2O)c(=O)c1=O)c1ccc(C)o1 ?
173

* * *

# assay-protocol: clinical study (i): single-dose oral pharmacokinetics, Formulation 1 capsules
# Assay type: in vivo, human
# cond: both sexes, human, plasma; single oral dose 200 mg, healthy subjects; read-out: t1/2 Mean (converted)
metric-name: half-life (h)
Enter your answer as a number in h; do not include the unit.

What does the record list as half-life for CC[C@@H](Nc1c(Nc2cccc(C(=O)N(C)C)c2O)c(=O)c1=O)c1ccc(C)o1 ?
11.3

* * *

# assay-protocol: clinical study (i): single-dose oral pharmacokinetics, Formulation 1 capsules
# Assay type: in vivo, human
# cond: both sexes, human, plasma; single oral dose 200 mg, healthy subjects
metric-name: Cmax (ng/mL)
Enter your answer as a number in ng/mL; do not include the unit.

What does the record list as Cmax for CC[C@@H](Nc1c(Nc2cccc(C(=O)N(C)C)c2O)c(=O)c1=O)c1ccc(C)o1 ?
416

* * *

# assay-protocol: clinical study (iii): multiple-dose oral pharmacokinetics, Formulation 1 capsules
# Assay type: in vivo, human
# cond: both sexes, human, plasma, oral, 10 mg, multiple-dose 10 mg, Day 1; read-out: AUC (0-24 hr) Mean
metric-name: AUC(0-t)

What does the record list as AUC(0-t) for CC[C@@H](Nc1c(Nc2cccc(C(=O)N(C)C)c2O)c(=O)c1=O)c1ccc(C)o1 [Compound I] ?
137 ng·h/mL

* * *

# assay-protocol: clinical study (iii): multiple-dose oral pharmacokinetics, Formulation 1 capsules
# Format: in vivo, human
# cond: both sexes, human, plasma, oral, 10 mg, multiple-dose 10 mg, Day 1; read-out: Tmax Median
metric-name: Tmax
The number alone won't do; follow it with the unit.

What does the record list as Tmax for CC[C@@H](Nc1c(Nc2cccc(C(=O)N(C)C)c2O)c(=O)c1=O)c1ccc(C)o1 [Compound I] ?
30 min

* * *

# assay-protocol: clinical study (i): single-dose oral pharmacokinetics, Formulation 1 capsules
# Assay type: in vivo, human
# cond: both sexes, human, plasma; single oral dose 10 mg, healthy subjects
metric-name: Cmax (ng/mL)
Enter your answer as a number in ng/mL; do not include the unit.

What does the record list as Cmax for CC[C@@H](Nc1c(Nc2cccc(C(=O)N(C)C)c2O)c(=O)c1=O)c1ccc(C)o1 ?
73.8

* * *

# assay-protocol: clinical study (ii): single-dose 30 mg, fasted or fed subjects, Formulation 1 capsules
# Type: in vivo, human
# cond: both sexes, human, plasma, po, 30 mg, single oral dose 30 mg, fasted, healthy subjects, n = 10; read-out: t1/2 Mean
metric-name: half-life (h)
Enter your answer as a number in h; do not include the unit.

What does the record list as half-life for CC[C@@H](Nc1c(Nc2cccc(C(=O)N(C)C)c2O)c(=O)c1=O)c1ccc(C)o1 [Compound I] ?
20.8

* * *

# assay-protocol: clinical study (iii): multiple-dose oral pharmacokinetics, Formulation 1 capsules
# Assay type: in vivo, human
# cond: both sexes, human, plasma, oral, 30 mg, multiple-dose 30 mg, Day 1; read-out: Tmax Median
metric-name: Tmax (min)
Enter your answer as a number in min; do not include the unit.

What does the record list as Tmax for CC[C@@H](Nc1c(Nc2cccc(C(=O)N(C)C)c2O)c(=O)c1=O)c1ccc(C)o1 [Compound I] ?
30

* * *

# assay-protocol: clinical study (i): single-dose oral pharmacokinetics, Formulation 1 capsules
# Format: in vivo, human
# cond: both sexes, human, plasma; single oral dose 150 mg, healthy subjects; read-out: Tmax Median
metric-name: Tmax (min)
Enter your answer as a number in min; do not include the unit.

What does the record list as Tmax for CC[C@@H](Nc1c(Nc2cccc(C(=O)N(C)C)c2O)c(=O)c1=O)c1ccc(C)o1 ?
45

* * *

# assay-protocol: clinical study (ii): single-dose 30 mg, fasted or fed subjects, Formulation 1 capsules
# Format: in vivo, human
# cond: both sexes, human, plasma, po, 30 mg, single oral dose 30 mg, fasted, healthy subjects, n = 10; read-out: AUC(I) Mean
metric-name: AUC (ng·h/mL)
Enter your answer as a number in ng·h/mL; do not include the unit.

What does the record list as AUC for CC[C@@H](Nc1c(Nc2cccc(C(=O)N(C)C)c2O)c(=O)c1=O)c1ccc(C)o1 [Compound I] ?
563

* * *

# assay-protocol: clinical study (iii): multiple-dose oral pharmacokinetics, Formulation 1 capsules
# Format: in vivo, human
# cond: both sexes, human, plasma, oral, 50 mg, multiple-dose 50 mg, Day 1; read-out: AUC (0-24 hr) Mean
metric-name: AUC(0-t)
The number alone won't do; follow it with the unit.

What does the record list as AUC(0-t) for CC[C@@H](Nc1c(Nc2cccc(C(=O)N(C)C)c2O)c(=O)c1=O)c1ccc(C)o1 ?
681 ng·h/mL

* * *

# assay-protocol: clinical study (i): single-dose oral pharmacokinetics, Formulation 1 capsules
# Format: in vivo, human
# cond: both sexes, human, plasma; single oral dose 10 mg, healthy subjects; read-out: Tmax Median
metric-name: Tmax (h)
Enter your answer as a number in h; do not include the unit.

What does the record list as Tmax for CC[C@@H](Nc1c(Nc2cccc(C(=O)N(C)C)c2O)c(=O)c1=O)c1ccc(C)o1 [Compound I] ?
1

* * *

# assay-protocol: clinical study (ii): single-dose 30 mg, fasted or fed subjects, Formulation 1 capsules
# Type: in vivo, human
# cond: both sexes, human, plasma, po, 30 mg, single oral dose 30 mg, fed, healthy subjects, n = 7; read-out: t1/2 Mean
metric-name: half-life (h)
Enter your answer as a number in h; do not include the unit.

What does the record list as half-life for CC[C@@H](Nc1c(Nc2cccc(C(=O)N(C)C)c2O)c(=O)c1=O)c1ccc(C)o1 [Compound I] ?
22.9

* * *

# assay-protocol: clinical study (iii): multiple-dose oral pharmacokinetics, Formulation 1 capsules
# Type: in vivo, human
# cond: both sexes, human, plasma, oral, 30 mg, multiple-dose 30 mg, Day 1; read-out: AUC (0-24 hr) Mean
metric-name: AUC(0-t) (ng·h/mL)
Enter your answer as a number in ng·h/mL; do not include the unit.

What does the record list as AUC(0-t) for CC[C@@H](Nc1c(Nc2cccc(C(=O)N(C)C)c2O)c(=O)c1=O)c1ccc(C)o1 [Compound I] ?
397

* * *

# assay-protocol: clinical study (i): single-dose oral pharmacokinetics, Formulation 1 capsules
# Format: in vivo, human
# cond: both sexes, human, plasma; single oral dose 150 mg, healthy subjects
metric-name: Cmax (ng/mL)
Enter your answer as a number in ng/mL; do not include the unit.

What does the record list as Cmax for CC[C@@H](Nc1c(Nc2cccc(C(=O)N(C)C)c2O)c(=O)c1=O)c1ccc(C)o1 ?
364
